- Run description: Retention time of the compound by HPLC analysis
- Format: physicochemical
Property label: Retention_time (min)
Give bare numbers, in min.

Dear colleague, could you send me Retention_time for each of the items below? Thanks.
1. O=C1CCc2cc(Nc3cccc(C(F)(F)F)c3)ccc2N1
2. O=C1CSc2cc(Nc3cc(C(F)(F)F)ccn3)ccc2N1
3. O=C1CCc2cc(Nc3cc(C(F)(F)F)ccn3)ccc2N1
4. O=C1CSc2cc(Nc3cccc(C(F)(F)F)c3)ccc2N1
5. O=C1CCCc2cc(Nc3cc(C(F)(F)F)ccn3)ccc2N1
6. O=C1CCCc2cc(Nc3cccc(C(F)(F)F)c3)ccc2N1

1. 24.4
2. 13.8
3. 7
4. 28.2
5. 10.8
6. 27

---

- Test system: A549
- Run description: Antiproliferative activity against human A549 cells assessed as growth inhibition after 72 hrs by MTS assay
- Format: functional, cell-based
- Stated conditions: A549, 72 h
Property label: pIC50
Answers are plain numbers, as −log10 of the molar value.

// known answers, use as guide
Smiles data	pIC50
O=C1CCc2cc(Nc3cccc(C(F)(F)F)c3)ccc2N1	5.38
O=C1CSc2cc(Nc3cc(C(F)(F)F)ccn3)ccc2N1	5.82
O=C1CCCc2cc(Nc3cccc(C(F)(F)F)c3)ccc2N1	5.35
O=C1CCc2cc(Nc3cc(C(F)(F)F)ccn3)ccc2N1	5.60
O=C1CSc2cc(Nc3cccc(C(F)(F)F)c3)ccc2N1	5.39

// returns pIC50 for O=C1CCCc2cc(Nc3cc(C(F)(F)F)ccn3)ccc2N1 with A549; value = 5.30

---

- Assayed system: Kinesin-like protein KIF11 (Homo sapiens, UniProt P52732)
- Sequence (P52732 whole entry): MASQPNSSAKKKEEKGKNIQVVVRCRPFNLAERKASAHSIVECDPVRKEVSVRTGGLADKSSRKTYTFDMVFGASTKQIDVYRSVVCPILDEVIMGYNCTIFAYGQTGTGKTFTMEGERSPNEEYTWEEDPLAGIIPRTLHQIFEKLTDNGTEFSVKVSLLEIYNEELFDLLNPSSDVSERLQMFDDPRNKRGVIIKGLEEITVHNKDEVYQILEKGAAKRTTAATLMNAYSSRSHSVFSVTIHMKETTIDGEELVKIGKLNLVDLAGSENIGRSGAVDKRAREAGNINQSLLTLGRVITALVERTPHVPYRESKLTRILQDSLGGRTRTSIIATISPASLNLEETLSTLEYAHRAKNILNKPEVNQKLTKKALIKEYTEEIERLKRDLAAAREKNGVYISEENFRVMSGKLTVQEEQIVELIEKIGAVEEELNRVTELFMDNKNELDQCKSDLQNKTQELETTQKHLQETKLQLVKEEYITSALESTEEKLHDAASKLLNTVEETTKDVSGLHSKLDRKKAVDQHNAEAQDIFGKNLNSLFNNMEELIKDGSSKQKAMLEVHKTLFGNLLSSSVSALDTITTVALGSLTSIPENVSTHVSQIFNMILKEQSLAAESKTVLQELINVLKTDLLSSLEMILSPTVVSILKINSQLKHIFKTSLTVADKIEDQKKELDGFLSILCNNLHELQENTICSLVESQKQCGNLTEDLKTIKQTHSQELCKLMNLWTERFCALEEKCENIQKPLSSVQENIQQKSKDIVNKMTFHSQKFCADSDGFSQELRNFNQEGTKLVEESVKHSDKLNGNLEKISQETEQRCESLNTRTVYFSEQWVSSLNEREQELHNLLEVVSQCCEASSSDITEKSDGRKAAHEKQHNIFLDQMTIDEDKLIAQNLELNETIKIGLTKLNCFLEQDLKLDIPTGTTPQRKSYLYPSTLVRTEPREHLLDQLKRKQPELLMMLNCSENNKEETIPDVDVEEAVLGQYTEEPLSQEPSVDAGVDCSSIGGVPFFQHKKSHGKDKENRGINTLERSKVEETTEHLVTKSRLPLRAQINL
Consider the following compounds; for each one, report its pIC50.
Answers are plain numbers, as −log10 of the molar value.

Worked cases, pIC50 given:
Smiles data	Assayed system	Value observed
O=C1CCCc2cc(Nc3cccc(C(F)(F)F)c3)ccc2N1	Kinesin-like protein KIF11 (Homo sapiens, UniProt P52732)	7.30
Nc1ccc2c(c1)[nH]c1cc(C(F)(F)F)ccc12	Kinesin-like protein KIF11 (Homo sapiens, UniProt P52732)	6.57
FC(F)(F)c1cccc(Nc2cccnc2)c1	Kinesin-like protein KIF11 (Homo sapiens, UniProt P52732)	5.15

Below is a list of compounds. For each, state its recorded pIC50.
1. O=C1CCc2cc(Nc3ccc(C(F)(F)F)cc3)ccc2N1
2. O=C1CSc2cc(Nc3cc(C(F)(F)F)ccn3)ccc2N1
3. O=C1COc2cc(Nc3cccc(C(F)(F)F)c3)ccc2N1
4. CC(=O)Nc1ccc2c(c1)[nH]c1cc(C(F)(F)F)ccc12
5. O=[N+]([O-])c1ccc2[nH]c3cc(C(F)(F)F)ccc3c2c1
6. FC(F)(F)c1cccc(Nc2ccc3c(c2)CCC(=S)N3)c1
7. O=C1CCc2cc(Nc3cccc(C(F)(F)F)c3)c(F)cc2N1
8. O=C1CCc2cc(Nc3cccc([N+](=O)[O-])c3)ccc2N1

6.48
7.46
6.54
7.07
7.37
6.72
6.04
6.36

# per-item lookup of pIC50; items listed below
1. O=c1[nH]c2ccc(Nc3cccc(C(F)(F)F)c3)cc2s1
2. O=c1ccc2ccc(Nc3cccc(C(F)(F)F)c3)cc2[nH]1

[6.09, 5.34]

---

- Run description: Thermodynamic solubility of the compound in 1/15 M phosphate buffer at pH 7.4 after 48 hrs by HPLC analysis
- Format: physicochemical
- Stated conditions: read-out: Therm_solubility
Property label: solubility thermodynamic at 48 h (µg/mL)
One number for each entry, in µg/mL.

Worked examples follow.
Smiles data	solubility thermodynamic at 48 h, µg/mL
FC(F)(F)c1ccc2c(c1)[nH]c1ccncc12	3.16
FC(F)(F)c1cccc(Nc2ccncc2)c1	264
O=C1CSc2cc(Nc3cc(C(F)(F)F)ccn3)ccc2N1	1.11

Take each entry in turn and give its solubility thermodynamic at 48 h.
1. O=C1CCc2cc(Nc3cc(C(F)(F)F)ccn3)ccc2N1
2. O=C1CCCc2cc(Nc3cc(C(F)(F)F)ccn3)ccc2N1
3. FC(F)(F)c1cccc(Nc2cccnc2)c1

6.12
8.07
10.8

---

- Run description: Thermodynamic solubility of the compound in 50% EtOH/1/15 M phosphate buffer at pH 7.4 after 48 hrs by HPLC analysis
- Type: physicochemical
- Stated conditions: read-out: Therm_solubility
Property label: log10(solubility thermodynamic at 48 h) (log10 of the value in µg/mL)
Note: values are log10 of solubility thermodynamic at 48 h expressed in µg/mL.

// worked examples, log10(solubility thermodynamic at 48 h) included
Smiles data	log10(solubility thermodynamic at 48 h)
FC(F)(F)c1ccc2c(c1)[nH]c1ccncc12	3.25
O=C1CCCc2cc(Nc3cccc(C(F)(F)F)c3)ccc2N1	3.87

Take each entry in turn and give its log10(solubility thermodynamic at 48 h).
1. O=C1CCc2cc(Nc3cc(C(F)(F)F)ccn3)ccc2N1
2. O=C1CCCc2cc(Nc3cc(C(F)(F)F)ccn3)ccc2N1

1: 3.55; 2: 3.68

---

- Run description: Thermodynamic solubility of the compound in 50% EtOH/1/15 M phosphate buffer at pH 7.4 after 48 hrs by HPLC analysis
- Type: physicochemical
- Stated conditions: read-out: Therm_solubility
Property label: solubility thermodynamic at 48 h
Write your answer as a measured quantity: the number, then the unit.

Smiles data	Property label	Value observed
O=C1CCc2cc(Nc3cccc(C(F)(F)F)c3)ccc2N1	solubility thermodynamic at 48 h	1800 µg/mL
O=C1CSc2cc(Nc3cccc(C(F)(F)F)c3)ccc2N1	solubility thermodynamic at 48 h	1700 µg/mL
FC(F)(F)c1ccc2c(c1)[nH]c1ccccc12	solubility thermodynamic at 48 h	424 µg/mL
FC(F)(F)c1ccc2c(c1)[nH]c1cnccc12	solubility thermodynamic at 48 h	472 µg/mL
FC(F)(F)c1cccc(Nc2cccnc2)c1	solubility thermodynamic at 48 h	14300 µg/mL
O=C1CSc2cc(Nc3cc(C(F)(F)F)ccn3)ccc2N1	solubility thermodynamic at 48 h	669 µg/mL

As a next step, examine the compound that follows.
Entry FC(F)(F)c1cccc(Nc2ccncc2)c1 — recorded solubility thermodynamic at 48 h = 24000 µg/mL

Measured values drawn from ChEMBL document CHEMBL3286205 for this set.
